# measured_on: MSI1 RRM1-RRM2 tandem (Homo sapiens, UniProt O43347 1-200)
# Sequence (O43347 1-200): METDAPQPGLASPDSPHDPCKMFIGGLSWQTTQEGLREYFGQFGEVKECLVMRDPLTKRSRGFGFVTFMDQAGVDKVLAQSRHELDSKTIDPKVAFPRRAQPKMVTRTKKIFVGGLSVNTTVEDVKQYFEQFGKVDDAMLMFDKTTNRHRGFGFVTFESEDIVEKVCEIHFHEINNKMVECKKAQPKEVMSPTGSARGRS
# experiment: SPR; 1:1 model (poor fit); SPR, 3'-biotinylated RNA immobilized on dextran sensor chip, protein as analyte; running buffer, salt, pH and temperature not in the material
# protocol_conditions: protein: recombinant; label: 3'-biotin; linear, single UAG motif
value_kind: Kd (nM)
Numbers only, in nM.

Record summary for UUGUUAGUUACCCCUU (ssRNA) [RNA-L1] : reported Kd = 2
